Counter-ions that a name gives are not always drawn.
Observed pIC50 for UniProt P03951, reported per entry below.
Interpret pIC50 as the negative base-10 log of the concentration measured in mol/L.

molecule: Cc1cc(C(=O)NC2CCC(N(C)C)CC2)ccc1-c1ccc(C[C@H](NC(=O)[C@H]2CC[C@H](CN)CC2)C(=O)Nc2ccc3[nH]c(C(F)(F)F)nc3c2)cc1 (stereo partly drawn) [Example 77, hydrochloride]
assayed-system: UniProt P03951
pIC50: 8.08
//
molecule: Cc1cc(C(=O)NC(C)C)ccc1-c1ccc(C[C@H](NC(=O)[C@H]2CC[C@H](CN)CC2)C(=O)Nc2ccc(-c3nnc(C(F)(F)C(F)(F)C(=O)O)[nH]3)cc2)cc1 [Example 116, hydrochloride]
assayed-system: UniProt P03951
pIC50: 8.70
//
molecule: COc1cc(C(=O)N[C@@H]2CCNC2)ccc1-c1ccc(C[C@H](NC(=O)[C@H]2CC[C@H](CN)CC2)C(=O)Nc2ccc(-c3nn[nH]n3)cc2)cc1 [Example 71, hydrochloride]
assayed-system: UniProt P03951
pIC50: 8.13
//
molecule: Cc1cc(C(=O)N[C@H]2CCNC2)ccc1-c1ccc(C[C@H](NC(=O)[C@H]2CC[C@H](CN)CC2)C(=O)Nc2ccc(-c3nn[nH]n3)cc2)cc1 [Example 9, hydrochloride]
assayed-system: UniProt P03951
pIC50: 8.77
//
molecule: Cc1cc(C(=O)N[C@H]2CC[C@H](O)CC2)ccc1-c1ccc(C[C@H](NC(=O)[C@H]2CC[C@H](CN)CC2)C(=O)Nc2ccc(-c3nc(C(F)(F)C(F)(F)CO)n[nH]3)cc2)cc1 [Example 110, hydrochloride]
assayed-system: UniProt P03951
pIC50: 8.74

Shift focus to the following entry.
Ask | Data request, read-out pIC50, for Cc1cc(C(=O)NC2CCN(C)CC2)ccc1-c1ccc(C[C@H](NC(=O)[C@H]2CC[C@H](CN)CC2)C(=O)Nc2ccc3[nH]c(C(F)(F)F)nc3c2)cc1 [Example 76, hydrochloride]
Reply | 7.60

* * *

pIC50 reference
assayed-system: human factor XIa (Homo sapiens, UniProt P03951)
Sequence (P03951 388-625 limits assumed): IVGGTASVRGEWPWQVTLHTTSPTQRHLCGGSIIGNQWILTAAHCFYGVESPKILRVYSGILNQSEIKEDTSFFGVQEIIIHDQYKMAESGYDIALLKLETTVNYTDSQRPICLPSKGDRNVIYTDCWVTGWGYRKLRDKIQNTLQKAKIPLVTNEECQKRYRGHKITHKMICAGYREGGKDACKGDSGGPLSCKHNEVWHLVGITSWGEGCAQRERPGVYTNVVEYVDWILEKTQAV
Sequence (P03951 19-387 partner limits assumed): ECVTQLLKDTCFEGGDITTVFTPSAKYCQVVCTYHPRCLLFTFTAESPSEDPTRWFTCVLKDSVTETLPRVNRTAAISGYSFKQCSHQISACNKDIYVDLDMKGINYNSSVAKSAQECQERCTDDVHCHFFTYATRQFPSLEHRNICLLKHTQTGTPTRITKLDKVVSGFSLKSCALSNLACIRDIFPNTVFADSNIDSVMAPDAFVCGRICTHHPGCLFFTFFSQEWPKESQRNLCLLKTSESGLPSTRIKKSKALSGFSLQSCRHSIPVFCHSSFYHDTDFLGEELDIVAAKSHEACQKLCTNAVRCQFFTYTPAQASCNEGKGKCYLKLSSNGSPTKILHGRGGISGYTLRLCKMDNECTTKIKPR
Structures can show the parent of a compound that is named as a salt.
Interpret pIC50 as the negative base-10 log of the concentration measured in mol/L.

molecule: CC(C)NC(=O)c1ccc(-c2ccc(C[C@H](NC(=O)[C@H]3CC[C@H](CN)CC3)C(=O)Nc3ccc4[nH]c(=O)[nH]c4c3)cc2)c(Cl)c1 [Example 137, hydrochloride]
pIC50: 7.96
--
molecule: Cc1cc(C(=O)N[C@H]2CC[C@H](O)CC2)ccc1-c1ccc(C[C@H](NC(=O)[C@H]2CC[C@H](CN)CC2)C(=O)Nc2ccc(-c3nnc(C(F)(F)C(F)(F)C(=O)O)[nH]3)cc2)cc1 (single isomer, unassigned; enantiomer 1) [Example 168]
pIC50: 9.30
--
molecule: Cc1cc(C(=O)N[C@@H]2CCNC2)ccc1-c1ccc(C[C@H](NC(=O)[C@H]2CC[C@H](CN)CC2)C(=O)Nc2ccc(-c3nn[nH]n3)cc2)cc1 [Example 8, hydrochloride]
pIC50: 8.60

Ask | Data request, read-out pIC50, for Cc1cc(C(=O)NCCN)ccc1-c1ccc(C[C@H](NC(=O)[C@H]2CC[C@H](CN)CC2)C(=O)Nc2ccc3cn[nH]c3c2)cc1 [Example 3, hydrochloride]
Reply | 7.96

Ask | Would you kindly repeat that for Cc1cc(C(=O)NC2CCNCC2(C)C)ccc1-c1ccc(C[C@H](NC(=O)[C@H]2CC[C@H](CN)CC2)C(=O)Nc2ccc(-c3nnn[nH]3)cc2)cc1 (stereo partly shown) [Example 149, hydrochloride] ?
Reply | 8.74

Ask | Would you kindly repeat that for Cc1c(C(=O)NC2CCNCC2)ccc(-c2ccc(C[C@H](NC(=O)[C@H]3CC[C@H](CN)CC3)C(=O)Nc3ccc(-c4nn[nH]n4)cc3)cc2)c1C [Example 123, hydrochloride] ?
Reply | 8.60

Ask | Would you kindly repeat that for Cc1cc(C(=O)NC2CCNCC2(C)C)ccc1-c1ccc(C[C@H](NC(=O)[C@H]2CC[C@H](CN)CC2)C(=O)Nc2ccc(-c3nnc(C(F)(F)C(F)(F)C(=O)O)[nH]3)cc2)cc1 (stereo partly shown) [Example 107, hydrochloride] ?
Reply | 8.85

Ask | Would you kindly repeat that for Cc1cc(C(=O)NC2CCNCC2)ccc1-c1ccc(C[C@H](NC(=O)[C@H]2CC[C@H](CN)CC2)C(=O)Nc2ccc3nc(-c4cccnc4)[nH]c3c2)cc1 [Example 59, hydrochloride] ?
Reply | 7.47

Ask | Would you kindly repeat that for Cc1nnc(-c2ccc(NC(=O)[C@H](Cc3ccc(-c4ccc(C(=O)NC5CCNCC5)cc4C)cc3)NC(=O)[C@H]3CC[C@H](CN)CC3)cc2)[nH]1 [Example 56, hydrochloride] ?
Reply | 7.32

* * *

assayed-system: human factor XIa (Homo sapiens, UniProt P03951)
Structures can show the parent of a compound that is named as a salt.
test-readout: pIC50
Interpret pIC50 as the negative base-10 log of the concentration measured in mol/L.

Use these answered entries as a reference point.
compound: NC[C@H]1CC[C@H](C(=O)N[C@@H](Cc2ccc(-c3ccc(C(=O)NC4CCNCC4)cc3)cc2)C(=O)Nc2ccc(-c3nn[nH]n3)cc2)CC1 [Example 37, hydrochloride]
pIC50: 8.07
--
compound: Cc1cc(C(=O)NC2CCCNC2=O)ccc1-c1ccc(C[C@H](NC(=O)[C@H]2CC[C@H](CN)CC2)C(=O)Nc2ccc(-c3nc(C(F)F)n[nH]3)cc2)cc1 (stereo partly shown) [Example 74, hydrochloride]
pIC50: 8.89
--
compound: Cc1cc(C(=O)NC2CCNCC2)ccc1-c1ccc(C[C@H](NC(=O)[C@H]2CC[C@H](CN)CC2)C(=O)Nc2ccc(-c3nn[nH]n3)cc2)cc1F [Example 61, hydrochloride]
pIC50: 8.49
--
compound: NC[C@H]1CC[C@H](C(=O)N[C@@H](Cc2ccc(-c3ccc(C(=O)N[C@H]4CCNC4)cc3Cl)cc2)C(=O)Nc2ccc(-c3nn[nH]n3)cc2)CC1 [Example 13, hydrochloride]
pIC50: 8.38
--
compound: NC[C@H]1CC[C@H](C(=O)N[C@@H](Cc2ccc(-c3ccc(C(=O)N[C@@H]4CCNC4)cc3)cc2)C(=O)Nc2ccc(-c3nn[nH]n3)cc2)CC1 [Example 39, hydrochloride]
pIC50: 8.01
--
compound: Cc1cc(C(=O)NC2CCN(C)CC2)ccc1-c1ccc(C[C@H](NC(=O)[C@H]2CC[C@H](CN)CC2)C(=O)Nc2ccc(-c3nn[nH]n3)cc2)cc1 [Example 42, hydrochloride]
pIC50: 8.44
--
compound: Cc1cc(C(=O)NC2CCNCC2)ccc1-c1ccc(C[C@H](NC(=O)[C@H]2CC[C@H](CN)CC2)C(=O)Nc2ccc(-c3nn[nH]n3)cc2)cc1 [Example 1, hydrochloride]
pIC50: 8.70
--
compound: NC[C@H]1CC[C@H](C(=O)N[C@@H](Cc2ccc(-c3ccc(C(=O)N[C@@H]4CCNC4)cc3Cl)cc2)C(=O)Nc2ccc(-c3nn[nH]n3)cc2)CC1 [Example 12, hydrochloride]
pIC50: 8.57

Ask | Data request, read-out pIC50, for Cc1cc(C(=O)NC2CCNCC2)ccc1-c1ccc(C[C@H](NC(=O)[C@H]2CC[C@H](CN)CC2)C(=O)Nc2ccc3[nH]c(=O)[nH]c3c2)cc1 [Example 53, hydrochloride]
Reply | 7.80

Ask | Would you kindly repeat that for Cc1cc(C(=O)NC2CCNCC2)ccc1-c1ccc(C[C@H](NC(=O)[C@H]2CC[C@H](CN)CC2)C(=O)Nc2ccc3[nH]c(=O)oc3c2)cc1 [Example 55, hydrochloride] ?
Reply | 7.39

* * *

assayed-system: human factor XIa (Homo sapiens)
Counter-ions that a name gives are not always drawn.
pIC50 reference
Interpret pIC50 as the negative base-10 log of the concentration measured in mol/L.

Use these answered entries as a reference point.
molecule: Cc1cc(C(=O)NC2CCN(C(C)C)CC2)ccc1-c1ccc(C[C@H](NC(=O)[C@H]2CC[C@H](CN)CC2)C(=O)Nc2ccc(-c3nn[nH]n3)cc2)cc1 [Example 40, hydrochloride]
pIC50: 8.44
--
molecule: Cc1cc(C(=O)N[C@@H]2CCCCNC2=O)ccc1-c1ccc(C[C@H](NC(=O)[C@H]2CC[C@H](CN)CC2)C(=O)Nc2ccc(-c3nn[nH]n3)cc2)cc1 [Example 64, hydrochloride]
pIC50: 8.80

Ask | Data request, read-out pIC50, for Cc1cc(C(=O)NC2CCNC(C)C2)ccc1-c1ccc(C[C@H](NC(=O)[C@H]2CC[C@H](CN)CC2)C(=O)Nc2ccc(-c3nn[nH]n3)cc2)cc1 (some centres unmarked) [Example 32, hydrochloride]
Reply | 8.47

Ask | Would you kindly repeat that for CCN(CC)CCNC(=O)c1ccc(-c2ccc(C[C@H](NC(=O)[C@H]3CC[C@H](CN)CC3)C(=O)Nc3ccc4cn[nH]c4c3)cc2)c(C)c1 [Example 6, hydrochloride] ?
Reply | 7.77

Ask | Would you kindly repeat that for Cc1cc(C(=O)N(C)C2CCN(C)CC2)ccc1-c1ccc(C[C@H](NC(=O)[C@H]2CC[C@H](CN)CC2)C(=O)Nc2ccc(-c3nnc(C(F)(F)C(F)(F)C(=O)O)[nH]3)cc2)cc1 [Example 113, hydrochloride] ?
Reply | 8.31

Value source: patent US20160272617A1
